Listed below: relative growth values for each entry.
Test system: Paenibacillus 1 (Paenibacillus castaneae)
assay.text: relative growth (AUC of 72 h growth curve relative to DMSO control, dAUC) (ratio); higher = more growth (less inhibition), active = hit call of the paper
conditions: 20 µM
Answer with the value's number alone.

* CCNc1nc(Cl)nc(NC(C)C)n1 | 1.01

For record Cc1cc(C)c(C2=C(OC(=O)CC(C)(C)C)C3(CCCC3)OC2=O)c(C)c1 the listed relative growth is 0.994

Given item CC(C)N1C(=O)c2ccccc2NS1(=O)=O , the value recorded as its relative growth is 0.96

* * *

System: Community 7
assay.text: relative growth (AUC of 72 h growth curve relative to DMSO control, dAUC) (ratio); higher = more growth (less inhibition), active = hit call of the paper
conditions: 20 µM
measurement.kind: relative growth

Sample answers from the record:
* CNC(=O)Oc1cccc2ccccc12 | 0.845 (inactive)
* N#Cc1c[nH]cc1-c1cccc2c1OC(F)(F)O2 | 1.12 (inactive)
* C[N+]1(C)CCCCC1 | 0.992 (inactive)

Quick note, relative growth for O=C(O)CNCP(=O)(O)O landed at 1.06 (inactive)

For reference, reported relative growth for Cc1cccc2sc3nncn3c12 stands at 1.05 (inactive)

Quick note, relative growth for O=C(O)COc1ccc(Cl)cc1Cl landed at 1.08 (inactive)

The recorded relative growth for entry O=C1C2CC=CCC2C(=O)N1SC(Cl)(Cl)Cl (stereo not drawn) equals 0.95 (inactive)

Entry COC(=O)NC(=S)Nc1ccccc1NC(=S)NC(=O)OC , relative growth reported as 1.03 (inactive)

Please fill in: relative growth reported for CCOc1cc(Oc2ccc(C(F)(F)F)cc2Cl)ccc1[N+](=O)[O-] = 0.968 (inactive)

# relative growth of N#CC(CCc1ccc(Cl)cc1)(Cn1cncn1)c1ccccc1 (stereo not drawn) = 0.96 (inactive)

Reported relative growth of CCOc1ccc(C(C)(C)COCc2cccc(Oc3ccccc3)c2)cc1 : 1.04 (inactive)

// field: relative growth; key: O=C(Nc1ccc(F)cc1F)c1cccnc1Oc1cccc(C(F)(F)F)c1 ; value = 1.04 (inactive)

So for CS(=O)(=O)c1cc(C(F)(F)F)ccc1C(=O)c1cnoc1C1CC1 , the logged relative growth turned out to be 0.983 (inactive)
